Target: T1, hNPR1-mFc:hBNP complex (human, UniProt P16860 103-134)
T1 construct: also called human NPR1 complexed to BNP
Experiment: SPR, mAb captured, 37C
valueType: koff (s⁻¹)

binder: mAb25491 (antibody, human IgG4, V domains shown) VH: QVQLVQSGAEVMKPGASVKVSCKASGYTFTGYYIHWVRQAPGQGLEWMGWITPNSGATNYAQKFQGRVTLTRDTSISTAYMELTRLKSDDTAVYYCARGGQLEFFYYYYGMDVWGQGTTVTVSS VL: DIQMTQSPSSLSASAGDRVTITCRASQSIDSYLNWYQQKPGKAPKLLISATSGFQSGVPSRFSGSGSGTDFTLTISSLQPEDFGTYYCQQSYTTPITFGQGTRLEIK
valueType: koff
reported: 0.000134
//
binder: mAb25508 (antibody, human IgG4, V domains shown) VH: EVQLVESGGGVVRPGGSLRLSCAASGFNVDDYGMSWVRQIPGKGLEWISGINWNGGRIYYADSMKGRITISRDNAKNSLYLQMNSLRAEDTALYHCVRDQWLVRGLDYWGQGTLVTVSS VL: DIQMTQSPSSLSASVGDRVTITCRASQGIYNYLAWFQQKPGKAPKSLIYAASSLQSGVPSKFSGSGSGTDFTLTISSLQPEDFATYYCQQYNTYPYTFGQGTKLEIK
valueType: koff
reported: 0.000164
//
binder: mAb22035 (antibody, human IgG4, V domains shown) VH: EVQLVESGGGLVQPGRSLRLSCAASGFTFDDYAMHWVRQAPGKGLEWVSGISWNSGTIGYADSVKGRFTMSRDNAKNSLYLQMNSLRPEDTALYYCAKDMGVSLALWGAFDIWGQGTMVTVSS VL: DIQMTQSPSSLSASVGDKVTITCRASQNIRTYLNWYQQKPGKAPKVLISTASSLQSGVPSRFSGSGSGTDFTLTISSLQPEDFAVFYCQQSFGIPRTFGQGTKVEIK
valueType: koff
reported: 0.000128
